// data source = patent US20230287044A1

- experiment-notes: Solubility of antibacterial peptides in solution
- Type: physicochemical
- applied-conditions: water
Square brackets hold non-standard residues; d marks the D form. Peptide text beside a SMILES is read from it.

>  <compound>
CC(C)[C@@H](NC(=O)[C@H](N)Cc1c[nH]c2ccccc12)C(=O)N[C@@H](C(=O)N[C@H](Cc1c[nH]c2ccccc12)C(=O)N[C@@H](C(=O)N[C@@H](C(=O)N[C@H](Cc1c[nH]c2ccccc12)C(=O)N[C@H](CCCNC(=N)N)C(=O)N[C@H](CCCNC(=N)N)C(=O)N[C@H](CCCNC(=N)N)C(N)=O)C(C)C)C(C)C)C(C)C [KSH42, wvvwvvwrrr] (H-[dW][dV][dV][dW][dV][dV][dW][dR][dR][dR]-NH2; N-terminus assumed)

>  <solubility at 12 h>
> 2000 µM

$$$$
>  <compound>
CC[C@@H](C)[C@@H](NC(=O)[C@@H](Cc1c[nH]c2ccccc12)NC(=O)[C@H](NC(=O)[C@@H](CC(C)C)NC(=O)[C@H](N)Cc1c[nH]c2ccccc12)C(C)C)C(=O)N[C@H](Cc1c[nH]c2ccccc12)C(=O)N[C@H](CCCNC(=N)N)C(=O)N[C@H](CCCNC(=N)N)C(=O)N[C@H](CCC(N)=O)C(=O)N[C@H](CCCNC(=N)N)C(N)=O [KSH31, wlvwiwrrqr] (H-[dW][dL][dV][dW][dI][dW][dR][dR][dQ][dR]-NH2; N-terminus assumed)

>  <solubility at 12 h>
> 2000 µM

$$$$

----------
MIC MRAB (A. baumannii) ATCC BAA 1605 listing for selected compounds.
- System: MRAB (A. baumannii) ATCC BAA 1605
- Assay type: cell-based, Acinetobacter baumannii
- applied-conditions: ATCC BAA 1605, 18 h
Square brackets hold non-standard residues; d marks the D form. Peptide text beside a SMILES is read from it. * marks the point of attachment. Decanoyl = CCCCCCCCCC(=O)*

>  <compound>
CC[C@@H](C)[C@@H](NC(=O)[C@@H](Cc1c[nH]c2ccccc12)NC(=O)[C@@H](C)NC(=O)[C@@H](C)NC(=O)[C@H](N)Cc1c[nH]c2ccccc12)C(=O)NCC(=O)N[C@H](CC(C)C)C(=O)N[C@H](CCCNC(=N)N)C(=O)N[C@H](CCCCN)C(=O)N[C@H](CCCCN)C(=O)N[C@H](CCCCN)C(N)=O [KSH75, waawiglrkkk] (H-[dW][dA][dA][dW][dI]G[dL][dR][dK][dK][dK]-NH2; N-terminus assumed)

>  <assay-system>
MRAB (A. baumannii) ATCC BAA 1605

>  <MIC MRAB (A. baumannii) ATCC BAA 1605>
2.5 µM

$$$$
>  <compound>
CC(C)[C@@H](NC(=O)[C@@H](Cc1c[nH]cn1)NC(=O)[C@@H](CCCNC(=N)N)NC(=O)[C@@H](CCCNC(=N)N)NC(=O)[C@H](N)CCCNC(=N)N)C(=O)N[C@H](Cc1c[nH]cn1)C(=O)N[C@@H](C(=O)N[C@@H](C(=O)N[C@H](Cc1c[nH]c2ccccc12)C(=O)N[C@H](CCCCN)C(N)=O)C(C)C)C(C)C [KSH58, rrrhvhvvwk] (H-[dR][dR][dR][dH][dV][dH][dV][dV][dW][dK]-NH2; N-terminus assumed)

>  <assay-system>
MRAB (A. baumannii) ATCC BAA 1605

>  <MIC MRAB (A. baumannii) ATCC BAA 1605>
5 µM

$$$$
>  <compound>
CC(C)[C@@H](NC(=O)[C@@H](Cc1c[nH]c2ccccc12)NC(=O)CNC(=O)[C@@H](CCCNC(=N)N)NC(=O)[C@@H](CCCNC(=N)N)NC(=O)[C@H](N)CCCNC(=N)N)C(=O)N[C@H](Cc1c[nH]c2ccccc12)C(=O)N[C@@H](C(=O)N[C@@H](C(=O)N[C@H](Cc1c[nH]c2ccccc12)C(=O)N[C@H](CCCCN)C(N)=O)C(C)C)C(C)C [KSH90, rrrgwvwvvwk] (H-[dR][dR][dR]G[dW][dV][dW][dV][dV][dW][dK]-NH2; N-terminus assumed)

>  <assay-system>
MRAB (A. baumannii) ATCC BAA 1605

>  <MIC MRAB (A. baumannii) ATCC BAA 1605>
5 µM

$$$$
>  <compound>
CCCCCCCCCC(=O)NCCCC[C@@H](NC(=O)[C@@H](CCCCN)NC(=O)[C@@H](CCCNC(=N)N)NC(=O)[C@@H](CC(C)C)NC(=O)[C@@H](C)NC(=O)[C@H](NC(=O)[C@@H](Cc1c[nH]c2ccccc12)NC(=O)[C@@H](CC(C)C)NC(=O)[C@@H](CC(C)C)NC(=O)[C@H](N)Cc1c[nH]c2ccccc12)[C@H](C)CC)C(N)=O [KSH7, wllwialrkk] (H-[dW][dL][dL][dW][dI][dA][dL][dR][dK][dK](Decanoyl)-NH2; N-terminus assumed)

>  <assay-system>
MRAB (A. baumannii) ATCC BAA 1605

>  <MIC MRAB (A. baumannii) ATCC BAA 1605>
>40 µM

$$$$
